testedTarget: HCV RNA-dependent RNA polymerase (Hepatitis C virus genotype 1a)
Construct: HCV RNA-dependent RNA polymerase is encoded in the NS5B (nonstructural protein 5B) region of HCV; made in house; host or cells: insect cells or E. coli
experimentSummary: Pre-incubation assay method with 3H-UTP (Example 1)
Assay type: biochemical
conditions: with pre-incubation
attributeMeasured: Judgement in the pre-incubation method (positive / negative)

compound | result
O=C1NC(=O)C(=Cc2ccc(OCCc3cccc4ccccc34)cc2)C(=O)N1 [Compound B] | negative
Cc1oc(-c2ccccc2)nc1CCOc1ccc(C=C2C(=O)NC(=O)NC2=O)cc1 [Compound A] | negative

----------
testedTarget: HCV RNA-dependent RNA polymerase (Hepatitis C virus genotype 1a)
Construct: HCV RNA-dependent RNA polymerase is encoded in the NS5B (nonstructural protein 5B) region of HCV; made in house; host or cells: insect cells or E. coli
experimentSummary: Pre-incubation assay method with 3H-UTP (Example 1)
Type: biochemical
conditions: pre-incubation 25° C. 60 min; method of Example 1
attributeMeasured: IC50 (µM)
Response body: numeric value in µM, unit text excluded.

For `O=C(O)C(O)=CC(=O)c1ccc(O)cc1` , write its IC50.
4.32

For `O=C(O)C(O)=CC(=O)c1ccccc1` , write its IC50.
12

For `O=C(O)C(O)=CC(=O)c1cccc(Br)c1` , write its IC50.
32.8

For `Cc1ccc(C(=O)C=C(O)C(=O)O)cc1` , write its IC50.
4.85

For `O=C(O)C(O)=CC(=O)c1ccc(Cl)cc1Cl` , write its IC50.
49.8

For `O=C(O)C(O)=CC(=O)c1ccc2ccccc2c1` , write its IC50.
28.5

For `COc1cc(C(=O)C=C(O)C(=O)O)ccc1O` , write its IC50.
46.2

For `O=C(O)/C(O)=C/C(=O)c1cccc(O)c1` , write its IC50.
1.92

For `COc1cccc(C(=O)C=C(O)C(=O)O)c1` , write its IC50.
37.8

For `O=C(O)C(O)=CC(=O)c1ccsc1` , write its IC50.
36.3

For `O=C(O)C(O)=CC(=O)c1ccc(Cl)cc1` , write its IC50.
31.3

For `O=C(O)C(O)=CC(=O)c1ccc(F)cc1` , write its IC50.
35.2

For `Nc1ccc(C(=O)C=C(O)C(=O)O)cc1` , write its IC50.
6.76

For `Cc1ccc(C(=O)C=C(O)C(=O)O)s1` , write its IC50.
14.6

For `O=C(O)C(O)=CC(=O)c1cc2ccccc2[nH]1` , write its IC50.
29.8

For `Cn1cccc1C(=O)C=C(O)C(=O)O` , write its IC50.
50.2

For `O=C(O)C(O)=CC(=O)c1cccs1` , write its IC50.
43.9

For `O=C(O)C(O)=CC(=O)c1ccc[nH]1` , write its IC50.
55.2

----------
testedTarget: HCV RNA-dependent RNA polymerase (Hepatitis C virus genotype 1a)
Construct: HCV RNA-dependent RNA polymerase is encoded in the NS5B (nonstructural protein 5B) region of HCV; made in house; host or cells: insect cells or E. coli
experimentSummary: Prior assay method without pre-incubation, 3H-UTP (Reference 1)
Assay type: biochemical
conditions: prior method, no pre-incubation; I-1 0.5 μg/ml, 3′-dUTP 0.7 μM, A 100 μg/ml, B 50 μg/ml, C 25 μg/ml
What Inhibitory rate (Table 3) was measured for each of the following?
Answer shape: numeric part, then the unit.

For `O=C1NC(=O)C(=Cc2ccc(OCCc3cccc4ccccc34)cc2)C(=O)N1` , write its Inhibitory rate (Table 3).
63%

For `CCCCC1=N/C(=C\c2ccccc2OCC(=O)O)C(=O)N1Cc1ccc(-c2ccccc2-c2nnn[nH]2)cc1` , write its Inhibitory rate (Table 3).
67%

For `Cc1oc(-c2ccccc2)nc1CCOc1ccc(C=C2C(=O)NC(=O)NC2=O)cc1` , write its Inhibitory rate (Table 3).
50%

For O=c1ccn([C@@H]2O[C@H](COP(=O)(O)OP(=O)(O)OP(=O)(O)O)C[C@H]2O)c(=O)[nH]1 [3′-dUTP, 3′-deoxyuridine triphosphate] , write its Inhibitory rate (Table 3).
68%

----------
testedTarget: HCV RNA-dependent RNA polymerase (Hepatitis C virus genotype 1a)
Construct: HCV RNA-dependent RNA polymerase is encoded in the NS5B (nonstructural protein 5B) region of HCV; made in house; host or cells: insect cells or E. coli
experimentSummary: DIG-UTP assay without radioisotope-labeled substrate, without pre-incubation (Example 2)
Format: biochemical
conditions: no pre-incubation, I-1 0.5 μg/ml, 3′-dUTP 0.7 μM, A 100 μg/ml, B 50 μg/ml, C 25 μg/ml
attributeMeasured: Inhibitory rate, treatment of pre-incubation − (%)
Response body: numeric value in %, unit text excluded.

For O=c1ccn([C@@H]2O[C@H](COP(=O)(O)OP(=O)(O)OP(=O)(O)O)C[C@H]2O)c(=O)[nH]1 [3′-dUTP, 3′-deoxyuridine triphosphate] , write its Inhibitory rate, treatment of pre-incubation −.
44

For `CCCCC1=N/C(=C\c2ccccc2OCC(=O)O)C(=O)N1Cc1ccc(-c2ccccc2-c2nnn[nH]2)cc1` , write its Inhibitory rate, treatment of pre-incubation −.
87

For `O=C1NC(=O)C(=Cc2ccc(OCCc3cccc4ccccc34)cc2)C(=O)N1` , write its Inhibitory rate, treatment of pre-incubation −.
28

For `Cc1oc(-c2ccccc2)nc1CCOc1ccc(C=C2C(=O)NC(=O)NC2=O)cc1` , write its Inhibitory rate, treatment of pre-incubation −.
87

----------
What inhibition at 100 µg/mL was measured for each of the following?
testedTarget: HCV RNA-dependent RNA polymerase (Hepatitis C virus genotype 1a)
Construct: HCV RNA-dependent RNA polymerase is encoded in the NS5B (nonstructural protein 5B) region of HCV; made in house; host or cells: insect cells or E. coli
experimentSummary: Pre-incubation assay method with 3H-UTP (Example 1)
Format: biochemical
conditions: 100 μg/ml; pre-incubation 25° C. 60 min; method of Example 1; read-out: Inhibition rate at a concentration of 100 μg/ml
Response body: numeric value in %, unit text excluded.

For `O=C(O)C(O)=CC(=O)c1cccs1` , write its inhibition at 100 µg/mL.
92

For `O=C(O)C(O)=CC(=O)c1ccc(O)cc1` , write its inhibition at 100 µg/mL.
99

For `Cc1ccc(C(=O)C=C(O)C(=O)O)s1` , write its inhibition at 100 µg/mL.
97

For `O=C(O)C(O)=CC(=O)c1cccc(Br)c1` , write its inhibition at 100 µg/mL.
93

For `O=C(O)C(O)=CC(=O)c1ccc(Cl)cc1Cl` , write its inhibition at 100 µg/mL.
90

For `O=C(O)C(O)=CC(=O)c1ccc(Cl)cc1` , write its inhibition at 100 µg/mL.
94

For `COc1cc(C(=O)C=C(O)C(=O)O)ccc1O` , write its inhibition at 100 µg/mL.
92

For `O=C(O)C(O)=CC(=O)c1cc2ccccc2[nH]1` , write its inhibition at 100 µg/mL.
95

For `Cc1ccc(C(=O)C=C(O)C(=O)O)cc1` , write its inhibition at 100 µg/mL.
99

For `O=C(O)C(O)=CC(=O)c1ccsc1` , write its inhibition at 100 µg/mL.
94

For `O=C(O)C(O)=CC(=O)c1ccccc1` , write its inhibition at 100 µg/mL.
98

For `Cn1cccc1C(=O)C=C(O)C(=O)O` , write its inhibition at 100 µg/mL.
94

For `O=C(O)C(O)=CC(=O)c1ccc2ccccc2c1` , write its inhibition at 100 µg/mL.
95

For `O=C(O)C(O)=CC(=O)c1ccc[nH]1` , write its inhibition at 100 µg/mL.
92

For `COc1cccc(C(=O)C=C(O)C(=O)O)c1` , write its inhibition at 100 µg/mL.
94

For `O=C(O)C(O)=CC(=O)c1ccc(F)cc1` , write its inhibition at 100 µg/mL.
94

----------
testedTarget: HCV RNA-dependent RNA polymerase (Hepatitis C virus genotype 1a, UniProt P27958)
Construct: HCV RNA-dependent RNA polymerase is encoded in the NS5B (nonstructural protein 5B) region of HCV; made in house; host or cells: insect cells or E. coli
Sequence (P27958 2421-3011): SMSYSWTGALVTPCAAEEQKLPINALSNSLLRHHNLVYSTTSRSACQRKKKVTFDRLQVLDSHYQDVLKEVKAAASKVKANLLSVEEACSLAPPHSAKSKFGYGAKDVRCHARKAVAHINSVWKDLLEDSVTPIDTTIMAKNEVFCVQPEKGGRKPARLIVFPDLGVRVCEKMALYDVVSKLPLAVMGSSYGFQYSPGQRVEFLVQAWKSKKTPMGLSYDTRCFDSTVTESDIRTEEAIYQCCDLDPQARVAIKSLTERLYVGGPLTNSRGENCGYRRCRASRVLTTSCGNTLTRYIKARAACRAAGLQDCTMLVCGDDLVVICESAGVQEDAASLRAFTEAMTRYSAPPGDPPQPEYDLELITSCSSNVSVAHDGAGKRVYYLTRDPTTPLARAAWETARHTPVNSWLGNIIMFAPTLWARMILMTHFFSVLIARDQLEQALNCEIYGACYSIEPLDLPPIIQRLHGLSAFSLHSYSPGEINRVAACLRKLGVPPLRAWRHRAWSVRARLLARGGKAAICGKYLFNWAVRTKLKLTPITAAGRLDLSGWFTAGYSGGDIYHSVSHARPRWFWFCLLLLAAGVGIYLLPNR
experimentSummary: Pre-incubation assay method with 3H-UTP (Example 1)
Assay type: biochemical
conditions: with pre-incubation; I-1 0.5 μg/ml, 3′-dUTP 0.7 μM, A 100 μg/ml, B 50 μg/ml, C 25 μg/ml
What Inhibitory rate (Table 2) was measured for each of the following?
Response body: numeric value in %, unit text excluded.

For `CCCCC1=N/C(=C\c2ccccc2OCC(=O)O)C(=O)N1Cc1ccc(-c2ccccc2-c2nnn[nH]2)cc1` , write its Inhibitory rate (Table 2).
2

For `O=C1NC(=O)C(=Cc2ccc(OCCc3cccc4ccccc34)cc2)C(=O)N1` , write its Inhibitory rate (Table 2).
1

For O=c1ccn([C@@H]2O[C@H](COP(=O)(O)OP(=O)(O)OP(=O)(O)O)C[C@H]2O)c(=O)[nH]1 [3′-dUTP, 3′-deoxyuridine triphosphate] , write its Inhibitory rate (Table 2).
79

For `Cc1oc(-c2ccccc2)nc1CCOc1ccc(C=C2C(=O)NC(=O)NC2=O)cc1` , write its Inhibitory rate (Table 2).
19
